# experimentSummary: MM1S cell viability effects, profiling panel, calcein-AM fluorescence, 48 h, basal (AID 1165);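 note: viability of MM1S multiple myeloma cells under basal unstimulated conditions; test concentration not given here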
# measurementParameters: higher = more signal
reportedMetric: z-score
Give the value as a plain number.

Worked examples follow.
{"compound": "CO[C@H]1COC(=O)CC=C[C@@H](C)COC(=O)[C@@H](OCc2ccccc2)C=C[C@@H]1C", "z-score": 0.301}
{"compound": "O=C(NN=C1C[C@@H](O)[C@@H](O)[C@@H]2[C@@H]3C(=O)N(Cc4ccc5c(c4)OCO5)C(=O)[C@@H]3CC[C@H]12)OCc1ccccc1", "z-score": 0.172}
{"compound": "CCCNC(=O)OC[C@H]1O[C@H](CCON=C(C)CCC(=O)OC[C@H]2O[C@H](C#Cc3ccccc3)C=C[C@@H]2Oc2ccc(C)cc2)C=C[C@@H]1Oc1ccc(OC)cc1", "z-score": -0.321}
{"compound": "C[C@@H]1CC[C@@H](C(=O)O)N[C@H]1c1ccc(-c2ccco2)cc1", "z-score": 0.617}

Given CCOC(=O)[C@H](Cc1ccccc1)NC(=O)CCC1CC(OC(=O)NCc2cccc3ccccc23)CC2(CCCC(COC(=O)NCCCN3CCCC3=O)O2)O1 (stereo not given in full) , state its recorded z-score.
-0.0157
